Taken from the RNAGym collection of RNA variant scans (doi:10.1073/pnas.2313332121).

Reported values of polymerase ribozyme fitness (log ratio) for individual entries
B1: TPR t1 (parent)
chain: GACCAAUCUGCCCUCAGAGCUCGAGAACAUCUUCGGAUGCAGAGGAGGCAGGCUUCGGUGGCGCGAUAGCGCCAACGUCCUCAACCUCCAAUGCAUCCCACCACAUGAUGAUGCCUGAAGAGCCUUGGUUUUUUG

Variants of: B1
Test: polymerase ribozyme fitness, log enrichment relative to wild type (log ratio); higher = more active; in vitro selection for triplet polymerase activity
Please respond with just the number, no unit label.

The examples below pair each entry with its known result.
variant_descriptor="G48U A84G U116C" measurement=-1.79
variant_descriptor="A43C U55C U130G" measurement=-2.82
variant_descriptor="G71C A75G" measurement=-0.0431
variant_descriptor="A50C C86G G127U" measurement=-2.12
variant_descriptor="A6U U54A" measurement=-0.507
variant_descriptor="C56U G65C" measurement=-5.42

Q) State the recorded polymerase ribozyme fitness (log ratio) for this entry: C53A G69C
A) -1.38

Q) Also need C8A C40U G61U U78A C80G A100C , thanks.
A) -6.33

Q) Same read-out for G17A C80U ?
A) -3.53

Q) One more variant: A26U A37U G52U A90U U112C
A) -6.53

Q) What do we get for A41C C82U ?
A) -1.12

Q) Let us now turn to G69U A121C
A) 2.82

Q) Follow-up item: C104U U112G
A) 0.761
